Values compiled from the RNAGym collection of RNA variant scans (doi:10.1021/acssynbio.7b00057).

We begin with a simple list: items and their reported aptazyme ON/OFF ratio.
B1: Pistol ribozyme (parent)
chain: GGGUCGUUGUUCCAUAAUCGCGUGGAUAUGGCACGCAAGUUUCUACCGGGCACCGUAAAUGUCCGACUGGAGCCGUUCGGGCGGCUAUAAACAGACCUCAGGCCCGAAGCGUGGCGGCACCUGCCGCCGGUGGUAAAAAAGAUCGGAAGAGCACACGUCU

variants of: B1; test: aptazyme ON/OFF ratio, guanine; higher = stronger switching; co-transcriptional cleavage with and without guanine
// return just the number, without any unit appended

U7C U10C U11A C12G :: 1.38
U7G U8C G9U U11A C12U C13A :: 1.46
U7A U8A G9A U11G C13A :: 1.15
U7C U8A U10C U11G C12G :: 1.37
U7C U8G U10A C12A :: 1.41

Record U8C G9A C12G C13A , field aptazyme ON/OFF ratio: 1.23

Record U7G U8C C12G C13A , field aptazyme ON/OFF ratio: 1.08

Record U7C U8C G9U U10C U11G C12G , field aptazyme ON/OFF ratio: 1.16

Record U8C G9A U10G C12G C13G , field aptazyme ON/OFF ratio: 1.11

Record U7A U8C G9U U11C C12U , field aptazyme ON/OFF ratio: 1.15

Record U7A U8A G9U U10G C12U C13G , field aptazyme ON/OFF ratio: 1.26

Record U7C G9U U10C C12U , field aptazyme ON/OFF ratio: 1.09
